Where do the numbers come from? From ChEMBL document CHEMBL1127922.

- EXPERIMENT SUMMARY: Ratio of LC50(NRKE) to LC50(N/4.2-NRK ) expressed as differential induces(DI) was determined
- Type: ADME
- TEST SETTINGS: rat, NRKE cells and N/4.2-NRK cells
ATTRIBUTE MEASURED: selectivity ratio

C=C(CN(CC(=C)S(C)(=O)=O)C1CC(C(C)(C)C)CCC1O)S(C)(=O)=O (stereo unspecified) | 0.6
